Reference source: a melting point compilation (Tetko et al.; mined from patent text by program, amines drawn as free bases though some values may be those of a salt)

experimental_readout: melting point

Look over these answered cases.
The compound listed as `CC(C)(C)OC(=O)N1CCN(C(=O)Cn2sc3ccccc3c2=O)CC1` has a reported melting point of 120 to 122 °C

The compound listed as `N#Cc1cnn(-c2ccc(C=O)cc2)n1` has a reported melting point of 148 to 150 °C

The compound listed as `CCC(=O)c1cc(Br)no1` has a reported melting point of 35 to 37 °C

The compound listed as `CCc1cc(S(=O)(=O)N(C)C)ccc1-c1cnc2[nH]c(CCc3cc(OC)ccn3)nc2c1` has a reported melting point of 179 to 180 °C

The compound listed as `COc1cc(C)c2c(c1)C(=O)CCC2` has a reported melting point of 55 °C

As a next step, examine the compound that follows.
The compound listed as `CN(C)S(=O)(=O)c1ccc2c(c1)S(=O)(=O)N=C1CCCN12` has a reported melting point of 251 to 253 °C

---

experimental_readout: melting point

The compound listed as `O=C(NC(=O)c1c(Cl)cccc1Cl)Nc1cncc(C(F)(F)F)n1` has a reported melting point of 188 to 192 °C

Others:
The compound listed as `COc1nc(C)c(C)nc1N(C)C(=O)N1CCN(c2cc(C)cc(C)c2)CC1` has a reported melting point of 94 to 96 °C

The compound listed as `N#Cc1cccc(-c2ccc(OC[C@@H](O)CCc3cccnc3)cc2)c1` has a reported melting point of 74 to 75 °C

The compound listed as `O=C(Cn1c(-c2ccc(Cl)cc2)nc2cccnc21)c1ccccc1` has a reported melting point of 211 to 212 °C

The compound listed as `O=C1NC(=O)c2ccc(Br)cc2/C1=C/NCCc1c[nH]c2ccccc12` has a reported melting point of 278 to 280 °C

The compound listed as `CCCc1c(Cc2ccccc2C(=O)O)cccc1OCCCOc1cc(O)c(-c2ccc(F)cc2)cc1CC` has a reported melting point of 150 to 151 °C

The compound listed as `OC/C=C(\c1ccccc1)c1ccc(C#Cc2ccccc2)cc1` has a reported melting point of 115 to 117 °C

The compound listed as `Clc1ccc(N2CCN(Cc3nc4ccccc4[nH]3)CC2)cc1` has a reported melting point of 212 to 213 °C

The compound listed as `CC(=O)C(C)(C(C)=O)C(C)=O` has a reported melting point of 33 to 35 °C

The compound listed as COc1ccccc1N1CCN(CC2Cc3cc(C)c4[nH]c(=O)ccc4c3O2)CC1 (stereo unspecified) has a reported melting point of 163 to 166 °C

The compound listed as `FC(F)(F)CNC1=NN(c2ccc(Cl)c(Cl)c2)CC1` has a reported melting point of 93 to 94 °C

The compound listed as `CCOC(=O)/C=C(C)/C(F)=C/C=C(C)/C=C/c1c(C)cc(OC)c(C)c1Cl` has a reported melting point of 115 to 117 °C

The compound listed as `CCCN(CCC)C(=O)CCC(=O)O` has a reported melting point of 35 to 37 °C

The compound listed as `NC(=O)CCCCc1c[nH]c2ccccc12` has a reported melting point of 134 to 139 °C

---

Measured melting point of individual entries

The compound listed as `CNC(=O)ON=C1SC(C)(C)N=C1C` has a reported melting point of 90 to 92 °C

The compound listed as `COC(=O)c1cc(O)cc(Cl)c1` has a reported melting point of 133 to 135 °C

The compound listed as `CC(=O)c1ccc(OCn2cc(Cl)cnc2=O)cc1` has a reported melting point of 182 °C

The compound listed as `Cn1c(C(F)(F)F)cc(=O)n(-c2cc([N+](=O)[O-])c(C#N)cc2F)c1=O` has a reported melting point of 155 to 157 °C

Others:
The compound listed as `COC(=O)c1cc(OCCc2nc(-c3ccccc3)oc2C)no1` has a reported melting point of 90 to 91 °C

The compound listed as COc1cc(C2C3=C(COC3=O)Nc3ccc4ncsc4c32)cc(OC)c1OC (centres undefined) has a reported melting point of 309 to 310 °C

The compound listed as `O=C(Cl)c1ccc2c(c1I)OCO2` has a reported melting point of 69 to 70 °C

The compound listed as CCOC(=O)C(C#N)c1cn(C(=O)OCC)c2cc(Cl)ccc12 (centres undefined) has a reported melting point of 126 to 128 °C

The compound listed as COc1ccc2c(c1)c(CC(=O)OC(OC(C)=O)c1ccccc1)c(C)n2C(=O)c1ccc(Cl)cc1 (centres undefined) has a reported melting point of 93 to 94 °C
